- system tested: Grb2 SH2 (UniProt P62993)
- Sequence (P62993 whole entry, looked up): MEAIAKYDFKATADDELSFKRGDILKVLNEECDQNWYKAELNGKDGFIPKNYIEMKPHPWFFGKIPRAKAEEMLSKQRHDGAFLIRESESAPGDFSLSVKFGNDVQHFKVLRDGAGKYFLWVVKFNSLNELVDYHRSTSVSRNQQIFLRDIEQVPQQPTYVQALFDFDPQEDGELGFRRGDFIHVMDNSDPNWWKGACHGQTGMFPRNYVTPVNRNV
- assay protocol: SH2 binding enrichment of the phosphorylated peptide, bacterial display (enrichment ratio); higher = better substrate or ligand; peptides without Tyr show the background
reported metric: SH2 binding enrichment
// return a plain number; no unit text

// query Need SH2 binding enrichment of CPYNLYAEQLS [HGD_Y40] , thanks.
// result 0.905

// query Need SH2 binding enrichment of QPSALYEDRYL [ASS1_Y83_S79P] , thanks.
// result 0.918

// query Need SH2 binding enrichment of QTPVLYAMLYH [MPZ_Y220_D224Y] , thanks.
// result 0.917

// query Need SH2 binding enrichment of TTKGSYSLSVR [HCK_Y180] , thanks.
// result 0.876

====

Provide the reported phosphorylation enrichment of each item.
- Test system: Fer (mouse);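 also: 11-residue human phosphosite peptides and single-mutation variants displayed on the E. coli surface, counted by deep sequencing, each peptide's frequency after selection divided by its frequency in the unselected input library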;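 also: frequency after pTyr selection over input frequency; kinase dosed for 20-30% of maximal phosphorylation in three min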
- assay protocol: phosphorylation enrichment, bacterial display (enrichment ratio); higher = better substrate or ligand; peptides without Tyr show the background
// return a plain number; no unit text

// query Need phosphorylation enrichment of IHHIDYFKETT [FGFR1_Y653_K656E_YF] , thanks.
// result 0.451

// query Need phosphorylation enrichment of RAQIRYAQEHD [NSD1_Y1987_R1984Q] , thanks.
// result 0.56

// query Need phosphorylation enrichment of KLVDVYVNDAF [PGK1_Y161_G158V] , thanks.
// result 0.496

// query Need phosphorylation enrichment of YDCKWYIPLTD [BCR_Y756] , thanks.
// result 0.502

// query Need phosphorylation enrichment of SVIVPYEPPEV [TP53_Y220_V217I] , thanks.
// result 0.631

// query Need phosphorylation enrichment of ESFRLYPPVPQ [CYP4B1_Y377] , thanks.
// result 0.378

// query Need phosphorylation enrichment of WFQTKYEELQI [KRT6B_Y360_YF] , thanks.
// result 0.46

// query Need phosphorylation enrichment of FNSLPYQVPTS [CALCOCO2_Y358] , thanks.
// result 1.36

// query Need phosphorylation enrichment of LVTRSYLLGNS [LMNA_Y646] , thanks.
// result 0.85

// query Need phosphorylation enrichment of CEAMEYPESKQ [BTK_Y511_L512P] , thanks.
// result 0.705

// query Need phosphorylation enrichment of RYLKDYGEFEV [GINS1_Y156_C152Y] , thanks.
// result 1

// query Need phosphorylation enrichment of CTTTHYNFMCN [TP53_Y234_I232T_YF] , thanks.
// result 0.466

// query Need phosphorylation enrichment of IKSSIYDNRKE [ARAP2_Y380] , thanks.
// result 0.355

// query Need phosphorylation enrichment of VYSSDYFSFVL [USP24_Y2138] , thanks.
// result 0.875

// query Need phosphorylation enrichment of LSPNMYNSKLW [TARSL2_Y457] , thanks.
// result 0.5

// query Need phosphorylation enrichment of LEQGEYALRSH [HADHB_Y244_D242G] , thanks.
// result 0.564

// query Need phosphorylation enrichment of EQYELHCEMGS [CBL_Y371_Y371H] , thanks.
// result 0.915

// query Need phosphorylation enrichment of KQELVYPNKKL [OPTN_Y356_T357P] , thanks.
// result 0.323

// query Need phosphorylation enrichment of GPQGFYSNKLV [PTPN14_Y506_V505F] , thanks.
// result 0.409

// query Need phosphorylation enrichment of VAVVQYSGMGQ [COL6A1_Y878_T881M] , thanks.
// result 0.407

// query Need phosphorylation enrichment of RPFSPYIIRGM [LRP5_Y1531_R1529S_YF] , thanks.
// result 0.494

// query Need phosphorylation enrichment of EPAVLYNLKDR [MYH7_Y103] , thanks.
// result 0.455

Data provenance: the supplement of paper PMC10065799
